# target: GATA4–NKX2-5 transcriptional synergy (Mus musculus, UniProt P42582+Q08369)
# Construct: expressed in transfected cells; host or cells: COS-1
# Sequence (Q08369 whole entry): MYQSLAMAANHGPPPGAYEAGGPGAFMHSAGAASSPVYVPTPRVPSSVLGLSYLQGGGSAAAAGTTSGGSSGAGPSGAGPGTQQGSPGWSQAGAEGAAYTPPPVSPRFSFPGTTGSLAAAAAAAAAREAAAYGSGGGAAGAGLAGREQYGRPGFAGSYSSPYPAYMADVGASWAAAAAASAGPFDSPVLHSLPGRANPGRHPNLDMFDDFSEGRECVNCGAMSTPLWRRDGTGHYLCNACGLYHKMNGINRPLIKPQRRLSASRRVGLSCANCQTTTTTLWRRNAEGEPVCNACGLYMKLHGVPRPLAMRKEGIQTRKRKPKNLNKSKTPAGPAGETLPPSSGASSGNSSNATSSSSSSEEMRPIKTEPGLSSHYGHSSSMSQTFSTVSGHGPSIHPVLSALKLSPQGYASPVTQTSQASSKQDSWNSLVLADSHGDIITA
# Sequence (P42582 whole entry): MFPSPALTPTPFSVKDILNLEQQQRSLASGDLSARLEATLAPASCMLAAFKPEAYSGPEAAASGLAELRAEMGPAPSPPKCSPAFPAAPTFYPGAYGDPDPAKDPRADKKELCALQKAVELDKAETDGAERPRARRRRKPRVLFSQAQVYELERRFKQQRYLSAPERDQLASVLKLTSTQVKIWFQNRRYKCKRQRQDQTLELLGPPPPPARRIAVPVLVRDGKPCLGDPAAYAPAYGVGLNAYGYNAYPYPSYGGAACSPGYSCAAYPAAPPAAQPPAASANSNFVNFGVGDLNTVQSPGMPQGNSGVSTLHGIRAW
# measurement-description: GATA4–NKX2-5 transcriptional synergy luciferase reporter assay (3xNKE reporter, COS-1 cells)
# Type: cell-based
# measurement-setup: COS-1; 10 µM; luciferase reporter activity relative to control
measurement-kind: activity at 10 µM (%)
Kindly answer with a numeric value in %, unit omitted.

# annotated cases, reported activity at 10 µM shown
compound: CCN(CC)c1ccc(NC(=O)c2csc([N+](=O)[O-])c2)cc1 [Compound 47u]
unit-info: %
activity at 10 µM: 24.5
//
compound: COc1ccc(-c2cc(NC(=O)c3ccc(C(C)(C)C)cc3)n[nH]2)cc1
unit-info: %
activity at 10 µM: 49.5
//
compound: CCN(CC)c1ccc(NC(=O)c2ccnn2-c2ccccc2)cc1
unit-info: %
activity at 10 µM: 52.7

Which activity at 10 µM is listed for Cc1onc(-c2ccccc2)c1C(=O)Nc1ccc(OCc2ccccc2)cc1 ?
71.9

Which activity at 10 µM is listed for CCCn1nnc(-c2ccccc2)c1C(=O)Nc1ccc(N(CC)CC)cc1 ?
96.1

Which activity at 10 µM is listed for COc1ccc(-c2cc(N)nn2C(=O)c2c(-c3ccccc3)noc2C)cc1 ?
72.1
